- Test system: HOP-62 NSCLC
- Protocol Summary: NCI-60 one-dose screen, 48 h (100 = growth as untreated, 0 = no growth, -100 = all killed)
- Recorded Conditions: 10 µM
About 83,000 compounds went through this panel and 20% of them were active in at least one assay; those are over-represented in the sample as a whole.
Measured Metric: growth (%)
Give bare numbers, in %.

Compound: COS(=O)(=O)c1ccc(Br)cc1
Units Of Measure: %
growth: 95.6

# batch size: 3; output growth per entry
1. O=c1[nH]cc(Cl)cc1O
2. C[C@]12CC[C@@H]3c4ccc(OCC(=O)O)cc4CC[C@H]3[C@@H]1CCC2=O
3. c1ccc(Cc2ccccc2)cc1

RESULT:
1. 103
2. 75
3. 101

# batch size: 3; output growth per entry
1. Cc1c(C(=O)O)c(=O)n(-c2ccccc2)n1C
2. Nc1nc(OCc2ccccc2)c2[nH]cnc2n1
3. N#Cc1ccc(NC(=O)Nc2cccc(C#N)c2)cc1

RESULT:
96.7
100
112

# batch size: 8; output growth per entry
1. S=c1[nH]ccn1-c1ccccc1Cl
2. CCCCC1C(=O)N(c2ccccc2)N(c2ccccc2)C1=O
3. CC(C)C(C#N)(C(C)C)C(C)C
4. C=CCNC(=O)c1ccc(OC)cc1
5. CCOC(=O)c1ccc(NC(=S)P(=O)(c2ccccc2)c2ccccc2)cc1
6. Cc1ccc(C)n1-c1ccsc1C(=O)NNC(=O)C(Cl)Cl
7. CC(C)(C)c1cc(O)c(C(C)(C)C)cc1O
8. COc1ccccc1NC(=O)C1=C(C)NC(C)=C(C(=O)Nc2ccccc2OC)C1c1cccc([N+](=O)[O-])c1

RESULT:
1. 112
2. 99.3
3. 101
4. 109
5. 105
6. 96.6
7. 105
8. 68.5

# batch size: 5; output growth per entry
1. CN(C)C(C)(C)CC(C)(C)C
2. O=C(NCCNC(=O)c1ccc(Cl)cc1Cl)c1ccc(Cl)cc1Cl
3. CC1C(=O)c2ccccc2CC1C(=O)O (stereo unspecified)
4. COc1cccc(COC(=O)Nc2ccccc2)c1OC
5. CN(C)C(=O)Oc1cccc([N+](C)(C)C)c1

RESULT:
1. 104
2. 87.6
3. 105
4. 100
5. 100

# batch size: 4; output growth per entry
1. CCCCNC1(C#N)CCN(Cc2ccccc2)CC1
2. FC(F)(F)c1ccc2c(c1)N(CCCN1CCN(C3CC3)CC1)c1ccccc1S2
3. COC(=O)c1cc(-c2ccc(Cl)c(Cl)c2)[nH]c(=O)c1C#N
4. C1CNC(C2=NCCN2)=N1

RESULT:
1. 87
2. 95.7
3. 95.5
4. 99.4

# batch size: 2; output growth per entry
1. CC1CCC2C(C)(C)C3CC12CC1OC13C (stereo unspecified)
2. CCOC(=O)c1ccc(Nc2sc(C(=O)c3cccc([N+](=O)[O-])c3)c(N)c2C#N)cc1

RESULT:
1. 109
2. 27.3

###

Provide the recorded growth for the entries that follow.
- Test system: HCC-2998 colon
- Protocol Summary: NCI-60 one-dose screen, 48 h (100 = growth as untreated, 0 = no growth, -100 = all killed)
- Recorded Conditions: 10 µM
This is part of a sample that, as a whole, favours compounds with a hit. Of some 83,000 tested, about 20% had one in any assay.
Give bare numbers, in %.

The following molecules have reported results that may help.
Molecule: COC(=O)c1[nH]c(=O)c(C#N)c(C(=O)OC)c1C(=O)c1ccccc1
growth, %: 113
//
Molecule: Cc1ccc(C(O)C2CC2)cc1 (stereo not drawn)
growth, %: 113
//
Molecule: O=C(O)CCCC(=O)O
growth, %: 103
//
Molecule: CC(=O)CC(=O)N(C)C
growth, %: 108
//
Molecule: Cc1cc2nc(CO)[nH]c2cc1C
growth, %: 109

# batch size: 7; output growth per entry
1. COCCCNC(=O)c1nnn2c1nc(N)c1cc(Cl)ccc12
2. O=C(Nc1ccccc1)OCCc1ccccc1
3. CCCCC1C(=O)N(c2ccccc2)N(c2ccccc2)C1=O
4. C#CC(C)(O)c1ccc(Cl)cc1 (stereo not drawn)
5. O=C1C=C(O)C(=O)C=C1O
6. CCCNC(=O)c1ccc(S(N)(=O)=O)cc1
7. CCOC(=O)c1cc(/C=C/c2cccc(Cl)c2)on1

RESULT:
1. 89.4
2. 99.7
3. 109
4. 97.8
5. 111
6. 100
7. 97.2
